experiment: reduction of polyQ htt aggregates in cells – imaging, exon1htt(103Q)mCFP cells, high-content imaging, primary screen (AID 483); conditions: exon1htt(103Q)mCFP cell line, aggregate imaging, at 2 µM; measured here: cell count, toxicity;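 also: compound exposure lasted 3 days before fixation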;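 as to nuclei count: percent of the per-plate median nuclei count of sample wells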

| Molecule | nuclei count |
| --- | --- |
| COc1cccc(C2C3=C(N=C4SCC(=O)N42)c2ccccc2CC3)c1OC (stereo unspecified) | 107% |
| CCOC(=O)c1cc2sccc2n1Cc1ccccc1 | 101% |
| CCN=C1SC(CC(=O)Nc2ccccc2OCC)C(=O)N1CC (stereo unspecified) | 100% |
| COc1ccc2c(c1)OC(O)(C(F)F)CC2=O (stereo unspecified) | 91.2% |
| CCOC(=O)N1CCC(N(CCCOC)C(=O)Nc2ccc(CC)cc2)CC1 | 106% |
| CCOc1cc(C(=O)N2CCN=C2SC)cc(OCC)c1OCC | 109% |
| Cc1ccc(CN2C(=O)CCC2C(=O)NC2CCCC2)cc1 (stereo unspecified) | 103% |
| COCCNC(=O)c1snc2ccc(Cl)cc12 | 89.8% |
| CC(C)CC1NC(=O)N(CC(=O)N2CCN(S(=O)(=O)c3ccc(Cl)cc3)CC2)C1=O (stereo unspecified) | 93% |
| CCOc1ccccc1NC(=O)CN(c1ccc(C)cc1)S(=O)(=O)c1c(C)noc1C | 97.9% |
| Cc1nc(CNS(=O)(=O)c2cccc(F)c2)cs1 | 87.9% |

====

test: reduction of polyQ htt aggregates in cells – imaging, exon1htt(103Q)mCFP cells, high-content imaging, primary screen (AID 483); conditions: exon1htt(103Q)mCFP cell line, aggregate imaging, at 2 µM; stronger effect = higher value;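 also: compound exposure lasted 3 days before fixation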
Measurement label: inhibition of aggregation (%)

| Compound | Endpoint result |
| --- | --- |
| CCCN1C2CCCC1CC(NC(=O)c1ccccc1F)C2 (stereo unspecified) | -1.6 |
| CC1C(=O)C(C)C(c2cccs2)NC1c1cccs1 (stereo unspecified) | 10.2 |
| O=C(Nc1ccc2c(c1)OCO2)c1cc2ncc(Br)cn2n1 | -4.4 |
| CCOC(=O)c1ccccc1NC1c2ccccc2C(=O)N1C1CCN(C(=O)OCC)CC1 (stereo unspecified) | -12 |
| O=C1C(Cl)=C(NCC2CCCO2)C(=O)N1CCc1ccccc1 (stereo unspecified) | 9.2 |
| CCCS(=O)(=O)N1CCN(Cc2ccc(OCc3ccccc3)c(OC)c2)CC1 | 9.9 |

====

test: blockers of RIG-like receptor reporter activation – cell-based, Sendai virus stimulus, luciferase, 10K MLSCN set, TLR/RLR signaling modifier project, primary screen (AID 602276); conditions: HEK293 RL24 IRF3 luciferase reporter, at 10 µM, stronger effect = higher value;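 also: firefly luciferase from ISG56 promoter only with Renilla not read in this screen; 0% = Sendai virus plus DMSO and 100% = medium plus DMSO without virus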

| Molecule | inhibition [%] |
| --- | --- |
| Cc1cc(-n2c(C)cc(C(=O)CSc3nc4ccccc4c(=O)n3Cc3ccco3)c2C)no1 | 8.08 |
| CCCN(Cc1cc2cc(C)ccc2[nH]c1=O)C(=O)c1cccc(OC)c1 | 10.4 |
| Cc1ccc(C(c2sc3ncnn3c2O)N2CC(C)CC(C)C2)cc1 (stereo not given) | 10.9 |
| COc1ccc(CN(C2CCCC2)S(=O)(=O)c2ccc(-n3cnnn3)cc2)cc1OC | 15.1 |
| CC1CN(C(=O)c2cc3cc(Cl)cc(Cl)c3oc2=O)CC(C)O1 (stereo not given) | 11.6 |
| CC1(C)CC(=O)N(CC(=O)NCc2ccccc2)c2ccccc2S1(=O)=O | 12.3 |
| COc1ccc(-n2c(SCC#N)nc3ccccc3c2=O)cc1 | -8.69 |
| Cc1ccc(NC(=O)c2ccco2)c(NC(=O)c2cccs2)c1 | 14.6 |
| Cc1cccc(N2C(=O)CC(N(C(=O)c3ccco3)c3cccc(C)c3)C2=O)c1 (stereo not given) | 13.6 |
| CCN(CC)c1ccc(-c2c(C#N)c(N)nc(OC)c2C#N)cc1 | -0.552 |
| COc1ccccc1N1CCN(Cc2nc(N)nc(Nc3ccc(C)c(Cl)c3)n2)CC1 | 11.5 |
| C=CCn1c(SCC(=O)O)nnc1-c1cccc(Cl)c1 | 8.76 |
| CC1CCN(S(=O)(=O)c2ccc3[nH]cc(C(=O)NCCN4CCOCC4)c(=O)c3c2)CC1 | 8.86 |
| CCOC(=O)c1cnc(-n2cc(C)cn2)nc1Nc1ccccc1OC | 2.82 |
| O=C1CCc2cc(S(=O)(=O)N3CCC(C(=O)NCc4ccccn4)CC3)ccc2N1 | 13.9 |
| COc1cccc(C(=O)Nc2ncc3c(n2)CC(C)CC3=O)c1 (stereo not given) | -6.66 |
| CCOC(=O)N1CCN(C(=O)c2csc3c2CCCCC3)CC1 | -2.32 |
| COC(=O)CSC1=C(C#N)C(c2ccccc2)CC(=O)N1 (stereo not given) | 25.3 |
| CSC1=NCCN1C(=O)c1ccc(S(=O)(=O)N2CCCC2)cc1 | 11.2 |
| O=C1c2ccccc2NC2CCCCCN12 (stereo not given) | -2.99 |
| CSc1ccc(Cn2nnc(C(=O)NCc3ccccc3)c2N)cc1 | 5.71 |
| COc1ccc(-n2c(Cc3cccn3C)nnc2SCC(=O)Nc2cccc(C)c2C)cc1 | 0.797 |
| Cc1cc(Cl)ccc1OCC(=O)Nn1c(C)ccc1C | 11.6 |
| COc1cccc(NC(=O)C2CCCN2C(=O)Nc2cccc(F)c2)c1 (stereo not given) | 9.51 |
| COc1ccc(C(=O)c2ccccc2)c(O)c1 | -1.71 |
| Cc1csc(NC(=O)CCCSc2nc3ccccc3s2)n1 | 23.5 |
| CC1=C(C(N)=O)C(c2cccnc2)n2nc(SCc3ccccc3Cl)nc2N1 (stereo not given) | -20.3 |
| Cc1ccc(S(=O)(=O)Cn2nnnc2C(C(C)C)N2CCN(C(=O)c3ccco3)CC2)cc1 (stereo not given) | 11.4 |
| COC(=O)c1ccsc1NC(=O)CN1C(=O)CCC1=O | -11.8 |
| Cc1ccc(-n2ncc3c(=O)[nH]c(SCC(=O)N4CCN(c5ccccc5)CC4)nc32)cc1 | 9.1 |
| O=S(=O)(NCC1CCCO1)c1ccc2c(c1)OCCO2 (stereo not given) | 6.84 |
| CCOc1ccccc1C(=O)Nc1nnc(CC)s1 | -6.19 |
| CCN(CC)CCOc1cccc(C(C)C)c1 | 6.62 |
| COc1cccc(-c2nc(CS(=O)(=O)CC(=O)NCc3ccc(Cl)cc3)c(C)o2)c1 | -3.28 |
| O=C(NC1CCCC1)C(c1ccco1)N(Cc1ccccc1)C(=O)c1csnn1 (stereo not given) | 17.4 |
| C=CCn1c(SCC(=O)Nc2ccccc2OC)nnc1-c1ccccn1 | 7.11 |
| O=C(Nc1nnc(CCN2CCCCC2)s1)C1CCCCC1 | 15.1 |
| CCc1[nH]nc2c1C(c1cccc(OC(=O)N3CCOCC3)c1)C(C#N)=C(N)O2 (stereo not given) | 20.6 |
| CC1(C)CC(=O)C(CC2=C(O)CC(C)(C)CC2=O)=C(O)C1 | 7.41 |
| Cc1cc(C)c2[nH]c(=O)c(C(c3nnnn3Cc3ccc4c(c3)OCO4)N3CCC(C)CC3)cc2c1 (stereo not given) | -4.82 |
| Cc1ccccc1N1C(N)=NC(N)=NC1(C)C | 4.23 |
| O=C(O)C1CCCCC1C(=O)NCCc1ccccc1 (stereo not given) | -15.8 |
| O=C1CCNc2cc3ccccc3cc21 | 21.5 |
| Cc1ccc(N2CCN(C(=S)c3ccc(N(C)C)cc3)CC2)cc1 | -12.6 |
| CC1Cc2ccccc2N1S(=O)(=O)c1cccc(C(=O)OCC(=O)NC2CCS(=O)(=O)C2)c1 (stereo not given) | 20.6 |

====

Documented nuclei count across a set of compounds
assay: reduction of polyQ htt aggregates in cells – imaging, exon1htt(103Q)mCFP cells, high-content imaging, primary screen (AID 483); conditions: exon1htt(103Q)mCFP cell line, aggregate imaging, at 2 µM; measured here: cell count, toxicity;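 also: compound exposure lasted 3 days before fixation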;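 as to nuclei count: percent of the per-plate median nuclei count of sample wells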
Measurement label: nuclei count (%)

| Compound | Endpoint result |
| --- | --- |
| CC1(C)C(=O)Nc2ccccc2N1C(=O)COC(=O)Cn1cnc2ccccc2c1=O | 107 |
| N#CC1=C(N)S[C@H](C(=O)C23CC4CC(CC(C4)C2)C3)[C@H]1c1ccncc1 | 105 |
| CCOc1ccc(Cc2nn[nH]n2)cc1 | 90.5 |
| O=C(Nc1ccc2snnc2c1)N1CCSCC1 | 97.6 |
| O=C(Cn1c(=O)n(CC2CCCO2)c(=O)c2ccccc21)c1ccccc1 (stereo unspecified) | 103 |
| COc1ccc(OC)c(CNC(=O)COc2cc(=O)n(C)c3ccccc23)c1 | 105 |
| Cc1ccc2c(C)nc(Nc3nc(CSc4nnnn4-c4ccccc4)cc(=O)[nH]3)nc2c1 | 100 |
| COc1cccc(/C=N/n2c(-c3ccco3)nc3ccccc3c2=O)c1 | 74.5 |
| O=S(=O)(Nc1ccc(Cc2ccncc2)cc1)N1CCCC1 | 111 |
| CCc1cc2c(=O)n(C(C)C(=O)OC3CCCCC3)cnc2s1 (stereo unspecified) | 114 |
| COc1ccc(N2CCN(Cc3nc4c(c(=O)n(C)c(=O)n4C)n3Cc3ccccc3C)CC2)cc1 | 100 |

Every entry's value here was drawn from PubChem BioAssay.
